system: NCI-H226 lung; assay: NCI-60 one-dose screen, 48 h (100 = growth as untreated, 0 = no growth, -100 = all killed); settings: 10 µM unless noted
About 83,000 compounds went through this panel and 20% of them were active in at least one assay; those are over-represented in the sample as a whole. Calls of active or inactive are those of the source. Rule for the calls: active = growth percent below 10; inactive = the rest.
Assay endpoint: growth

O=C(O)C1CSC(c2ccccc2)N1 (stereo unspecified) ... 97% (inactive)

Lab note: `O=[n+]1ccn([O-])c2ccccc21` gave growth of 89.8% (inactive)

Lab note: `c1ccc2c(NCCCN3CCN(CCCNc4c5ccccc5nc5ccccc45)CC3)c3ccccc3nc2c1` gave growth of -26.2% [100 µM] (active)

Lab note: COC1CC(OC(=O)c2ccc([N+](=O)[O-])cc2)C(COC(=O)c2ccc([N+](=O)[O-])cc2)O1 (stereo unspecified) gave growth of 88.9% (inactive)

Lab note: `O=c1cc(C(F)(F)F)[nH]c(=S)[nH]1` gave growth of 112% (inactive)

Lab note: `Nc1cc(N)ncn1` gave growth of 93.9% (inactive)

Lab note: `CCOC(=O)c1ccc(Nc2sc(C(=O)c3ccc(Br)cc3)c(N)c2C#N)cc1` gave growth of 56% (inactive)

Lab note: CC1CC(C)S(=O)(=O)C1 (stereo unspecified) gave growth of 105% (inactive)

Lab note: `O=C(CCCl)OCCOc1ccccc1` gave growth of 104% (inactive)

Lab note: `C=C1SC(=Nc2c(C)cccc2C)N(c2nc(Cl)nc(Cl)n2)C12CCCCC2` gave growth of 104% (inactive)

Lab note: `CCNC(=O)Oc1ccc[nH]c1=O` gave growth of 115% (inactive)

---

Overview of reported growth across a group of molecules:
Test system: SK-MEL-5 melanoma
Assay: NCI-60 one-dose screen, 48 h (100 = growth as untreated, 0 = no growth, -100 = all killed)
Details: 10 µM unless noted
Procedure: Growth inhibition of the SK-MEL-5 human tumor cell line is measured as a screen for anti-cancer activity. Cells are grown in 96 well plates and exposed to the test compound for 48 hours. Compounds are tested at a single concentration, which is 10^-5 M for most compounds. The reported endpoint is percent growth (GI% or GIPRCNT), where numbers from 0 - 100% represent growth inhibition, and numbers from -100% - 0 represent cell death. For example, a value of 40 represents 60% growth inhibition. […]
This is part of a sample that, as a whole, favours compounds with a hit. Of some 83,000 tested, about 20% had one in any assay. Active and inactive are the calls of the source. The calls were made as follows: active = growth percent below 10; inactive = the rest.

Lab note: `CCOC(=O)C(=O)CC(=O)c1ccccc1` gave growth of 95% (inactive)

Lab note: `CCNC(=O)Oc1ccc[nH]c1=O` gave growth of 95.2% (inactive)

---

tested on: SW-620 colon; assay: NCI-60 one-dose screen, 48 h (100 = growth as untreated, 0 = no growth, -100 = all killed); details: 10 µM unless noted
This is part of a sample that, as a whole, favours compounds with a hit. Of some 83,000 tested, about 20% had one in any assay.
Overview of reported growth across a group of compounds:
Lab book: enter the figure in %, no units written.

Lab note: `O=C1C=Cc2ccccc2/C1=C/c1[nH]c(=O)[nH]c1O` gave growth of 22

Lab note: `Cc1ccc(Cc2ccc(C)cc2)cc1` gave growth of 102

Lab note: `ON1CCCC1` gave growth of 101

Lab note: `CC(=O)NCNC(C)=O` gave growth of 107

Lab note: `C1C[S+]2CC[S+]1CC2` gave growth of 101

Lab note: `CCCCOC(=O)c1ccccc1O` gave growth of 101

Lab note: `Cc1c(-c2ccc(C3CCCCC3)cc2)nc2ccc(F)cc2c1C(=O)O` gave growth of 30.6

Lab note: `Cn1/c(=N\N=C\c2ccccc2OCCO)sc2ccccc21` gave growth of 109
